molecules and their reported Cross Reactivity (%)
system: antiserum produced against the ergonovine KLH conjugate; assay: Competitive ELISA; assay type: binding, rabbit; details: relative to ergonovine
Please state the figure in %; there is no need to write the unit.

Example results:
COMPOUND STRUCTURE STRING | Cross Reactivity (%)
CN1C[C@H](CO)C=C2c3cccc4[nH]cc(c34)C[C@H]21 | 4
CC(C)C[C@H]1C(=O)N2CCC[C@H]2[C@]2(O)O[C@](NC(=O)[C@@H]3C=C4c5cccc6[nH]cc(c56)C[C@H]4N(C)C3)(C(C)C)C(=O)N12 | 5
CC(C)[C@H]1C(=O)N2CCC[C@H]2[C@]2(O)O[C@@](C)(NC(=O)[C@@H]3C=C4c5cccc6[nH]cc(c56)C[C@H]4N(C)C3)C(=O)N12 | 20

Here is another molecule to look at.
Input: I would be grateful if you could share the reported Cross Reactivity (%) for C[C@@H](CO)NC(=O)[C@@H]1C=C2c3cccc4[nH]cc(c34)C[C@H]2N(C)C1 .
Output: 100
